Data credit: the supplement of paper PMC9170038

tested on: MS2 coat protein; test: apparent KD of MS2 coat protein; designed switch direction (-1 OFF switch, 1 ON switch): -1; higher = weaker reporter binding; conditions: input ligand: microRNA oligo, concentration not stated
propertyLabel: apparent KD of MS2 coat protein

Identify the measured apparent KD of MS2 coat protein of AUUAUAUAGCAAGGAUAUAGAAUAUUAUUUUAACAUGAGGAUCACCCAUGUAACCUUAUGUGUAGCUAGAAGGUGCAUUUAUUA [Title] (Eterna round: R96, puzzle: Exclusion NG 2) for MS2 coat protein. 64.1 nM

// next record AGCAUGUGAGGAUAUGCGGACUCCGGUAAAGCUGGAGUCCAGUAGAAGGCACAUGAGGAUCACCCAUGUGAGAU [Uszadi] (Eterna round: R96, puzzle: Exclusion 4) 53.3 nM

What about this sequence? GUCAGCUCGUGAGGAUAUGCACAUGAGGAUCACCCAUGUAAGAUCAAGCUGCUUCGGCAGCAAGUGCAGAAGGCACGAGCUGAU [ENG2/9-A3] (Eterna round: R96, puzzle: Exclusion NG 2) 179 nM

Similarly, GCAGAAAGUGUAGGAUAUAGAUAUUAGCGGAAACGCAAUACAUGAGGAUCACCCAUGUUUCCUCACUAGAAGGGCAAAAGCUGC [EXNG2 V2 d] (Eterna round: R96, puzzle: Exclusion NG 2) ? 12.5 nM

What about ACAGUCACAUGGGUACCAGACAUGAGGAUCACCCAUGUGACAGGUACUUUGUGGCGUCUUGUAUAAUUAAUAAUCAA [Sensor v2, turn off variant (Maaon - vinnie MOD7)] (Eterna round: R96, puzzle: Sensor v2, turn-off variant) ? 14.3 nM

What about GCAGCAAAAUUCCAUAAAACCACAUGAGGAUCACCCAUGUCUCAGGAUAUGGUCUGGAUUACAGGCCAGAAGGGAGAAAGCUGC [Eli exng3 - 058] (Eterna round: R96, puzzle: Exclusion NG 3) ? 12.6 nM

# repeat for AGGUGCUUCAGGAGACAUGAGGAUCACCCAUGUUGAGUUAGCGAGGAUAUCGGUAACCCUUGUGAUGAGAAGGCGCAAACCAGU [Ex NG3 #45] (Eterna round: R96, puzzle: Exclusion NG 3) 14.4 nM

Record: CUGGACCCGGUAGGAUAUAUUGUGGGCGGGCGUGGAACGACAUGAGGAUCACCCAUGUGAUUGAGGUAGAAGGGCCGAGAGGUC [Excl-NG2-LRO19] (Eterna round: R96, puzzle: Exclusion NG 2) 31.2 nM

// query: ACAUGAGGAUCACCCAUGUUUUUUGGGUACUCUUGUUUCUGCAAGGAUAUGCAUUAUUUAUGUACGCAGAAGGUGCAUUACGUC [JR_ExcNG3_Sub062] (Eterna round: R96, puzzle: Exclusion NG 3) 692 nM
